System tested: human S1PR5 (Homo sapiens, UniProt Q9H228)
Construct: host or cells: CHO-K1
Sequence (Q9H228 whole entry): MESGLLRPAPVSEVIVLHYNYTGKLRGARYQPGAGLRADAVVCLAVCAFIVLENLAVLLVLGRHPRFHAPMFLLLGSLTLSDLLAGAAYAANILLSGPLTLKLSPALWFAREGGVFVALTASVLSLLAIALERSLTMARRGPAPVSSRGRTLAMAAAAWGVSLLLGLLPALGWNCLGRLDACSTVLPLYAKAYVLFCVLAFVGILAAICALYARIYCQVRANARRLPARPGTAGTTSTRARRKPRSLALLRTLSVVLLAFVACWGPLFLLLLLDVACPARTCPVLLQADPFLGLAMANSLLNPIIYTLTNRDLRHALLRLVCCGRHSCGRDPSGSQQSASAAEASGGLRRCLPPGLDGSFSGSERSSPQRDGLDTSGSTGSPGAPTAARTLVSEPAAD
Assay method text: Intracellular Ca2+ release (FLIPR) agonist potency, S1P5
Type: cell-based
Condition summary: recombinant CHO-K1 cells expressing human S1PR5, aequorin, Gq/i5; Calcium 5 FLIPR; read-out: S1P5 EC50 range
Listed below: EC50 values for each entry.

Some entries whose results are on file:
Entry O=C(O)C1CN(C2COc3c(cccc3OCc3c(Cl)cccc3Cl)C2)C1 (centres unmarked) has what EC50?
1 to 10 µM

Entry O=C(O)C1CCN(C2CCc3cc(OCc4c(Cl)cccc4Cl)ccc3C2)C1 (centres unmarked) has what EC50?
< 0.01 µM

***
Entry COc1cccc(COc2ccc3c(c2)CCC(OCC(=O)O)C3)c1 (centres unmarked) has what EC50?
1 to 10 µM

Entry O=C(O)C1CN(C2COc3cc(-c4ccc(OCc5cccc(F)c5F)cc4)ccc3C2)C1 (centres unmarked) has what EC50?
0.01 to 0.1 µM

Entry CCc1cccc(F)c1COc1ccc2c(c1)OCC(NC1(CC(=O)O)CCCC1)C2 (centres unmarked) has what EC50?
< 0.01 µM

Entry Cc1cccc(COc2ccc3c(c2)OCC(N2CC(C(=O)O)C2)C3)c1F (centres unmarked) has what EC50?
1 to 10 µM

Entry O=C(O)C1CN(C2COc3cc(OCCCc4cccc(F)c4)ccc3C2)C1 (centres unmarked) has what EC50?
1 to 10 µM

Entry CC1(C(=O)O)CN([C@@H]2COc3cc(OCc4c(Cl)cccc4Cl)ccc3C2)C1 has what EC50?
< 0.01 µM

----------
System tested: human S1PR1 (Homo sapiens, UniProt P21453)
Construct: host or cells: CHO-K1
Sequence (P21453 whole entry): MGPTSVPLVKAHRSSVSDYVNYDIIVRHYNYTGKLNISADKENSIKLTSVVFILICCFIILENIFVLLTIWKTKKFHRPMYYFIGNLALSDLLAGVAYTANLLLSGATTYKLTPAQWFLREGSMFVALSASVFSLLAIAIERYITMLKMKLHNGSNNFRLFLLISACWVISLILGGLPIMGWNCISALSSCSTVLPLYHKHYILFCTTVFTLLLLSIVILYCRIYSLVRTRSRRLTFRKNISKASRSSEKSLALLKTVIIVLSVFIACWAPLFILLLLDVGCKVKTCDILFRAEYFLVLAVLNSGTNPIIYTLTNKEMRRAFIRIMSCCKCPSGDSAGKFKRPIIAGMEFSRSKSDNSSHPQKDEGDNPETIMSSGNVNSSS
Assay method text: Intracellular Ca2+ release (FLIPR) agonist potency, S1P1
Type: cell-based
Listed below: EC50 values for each entry.

Entry CCc1cccc(F)c1COc1ccc2c(c1)OC[C@@H](NCc1cc(O)no1)C2 has what EC50?
> 1000 nM

Here is the next item to consider.
Entry CCc1cccc(Cl)c1COc1ccc2c(c1)CCC(NCc1cc(=O)[nH]o1)C2 (centres unmarked) has what EC50?
< 1000 nM

----------
Listed below: pEC50 values for each entry.
System tested: human S1PR5 (Homo sapiens)
Construct: host or cells: CHO-K1
Assay method text: Intracellular Ca2+ release (FLIPR) agonist potency, S1P5
Assay type: cell-based
Condition summary: recombinant CHO-K1 cells expressing human S1PR5, aequorin, Gq/i5; Calcium 5 FLIPR; read-out: S1P5 EC50 range
Procedure: Agonistic activity was measured using the method described below. Intracellular Ca^2+ Release Agonist potency and intrinsic activity was assessed by measurement of intracellular Ca^2+ release. […] Phospho-fingolimod was used as positive control. […] Measurements were performed using a fluorometric imaging plate reader FLIPR®tetra (Molecular Devices). […]
pEC50: −log10 of the molar value.

Entry CCc1cccc(Cl)c1COc1ccc2c(c1)OCC(OCC(=O)O)C2 (centres unmarked) has what pEC50?
> 8.00

Entry CCc1cccc(F)c1COc1ccc2c(c1)OCC(N1CCC(C(=O)O)C1)C2 (centres unmarked) has what pEC50?
> 8.00

Entry O=C(O)COC1CCc2cc(OCc3cc(OC(F)(F)F)ccc3F)ccc2C1 (centres unmarked) has what pEC50?
7.00 to 8.00

Entry O=C(O)C12CC(NC3COc4cc(OCc5c(Cl)cccc5Cl)ccc4C3)(C1)C2 (centres unmarked) has what pEC50?
7.00 to 8.00

***
Entry CN(CC(=O)O)C1COc2cc(OCc3ccc(OCc4ccc(Cl)cc4)cc3)ccc2C1 (centres unmarked) has what pEC50?
7.00 to 8.00

Entry O=C(O)C1CN(C2COc3cc(OCc4ccc(F)c(C(F)(F)F)c4)ccc3C2)C1 (centres unmarked) has what pEC50?
5.00 to 6.00

Entry O=C(O)CC1CN(C2CCc3cc(OCc4c(Cl)cccc4Cl)ccc3C2)C1 (centres unmarked) has what pEC50?
> 8.00

Entry CC(C)(C)c1ccc(COc2ccc3c(c2)CCC(OCC(=O)O)C3)cc1 (centres unmarked) has what pEC50?
7.00 to 8.00

----------
System tested: human S1PR5 (Homo sapiens)
Construct: host or cells: CHO-K1
Assay method text: Intracellular Ca2+ release (FLIPR) agonist potency, S1P5
Type: cell-based
Condition summary: recombinant CHO-K1 cells expressing human S1PR5, aequorin, Gq/i5; Calcium 5 FLIPR; read-out: S1P5 EC50 range
pEC50: −log10 of the molar value.
Recorded endpoint: pEC50

Entry O=C(O)CNC1COc2cc(-c3ccc(OCc4ccccc4)cc3)ccc2C1 (stereo not drawn) has what pEC50?
> 8.00

Entry Cc1ccccc1COc1ccc2c(c1)CCC(OCCC(=O)O)C2 (stereo not drawn) has what pEC50?
5.00 to 6.00

Entry O=C(O)C1CN(C2CCc3cc(OCc4c(Cl)cccc4Cl)ccc3C2)C1 (stereo not drawn) has what pEC50?
> 8.00

Entry O=C(O)C1CN(C2COc3cc(OCCc4ccccc4Cl)ccc3C2)C1 (stereo not drawn) has what pEC50?
5.00 to 6.00

Entry O=C(O)COC1CCc2cc(OCc3c(Cl)cccc3Cl)ccc2C1 (stereo not drawn) has what pEC50?
6.00 to 7.00

Entry O=C(O)C1CN(C2COc3cc(C#Cc4cccc(F)c4F)ccc3C2)C1 (stereo not drawn) has what pEC50?
7.00 to 8.00

Entry O=C(O)COC1CCc2cc(OCc3c(F)cccc3Cl)ccc2C1 (stereo not drawn) has what pEC50?
6.00 to 7.00

Entry CCc1cccc(Cl)c1COc1ccc2c(c1)CCC(N1CC(C(=O)N(C)OC)C1)C2 (stereo not drawn) has what pEC50?
6.00 to 7.00

Entry COc1ccc(F)c(COc2ccc3c(c2)OCC(N2CC(C(=O)O)C2)C3)c1 (stereo not drawn) has what pEC50?
5.00 to 6.00

----------
System tested: human S1PR1 (Homo sapiens, UniProt P21453)
Construct: host or cells: CHO-K1
Assay method text: Intracellular Ca2+ release (FLIPR) agonist potency, S1P1
Assay type: cell-based
Condition summary: recombinant CHO-K1 cells expressing human S1PR1, aequorin, Gq/i5; Calcium 5 FLIPR; read-out: S1P1 EC50
pEC50: −log10 of the molar value.
Listed below: pEC50 values for each entry.

Entry Cc1ccc(C(F)(F)F)c(COc2ccc3c(c2)CCC(OCC(=O)O)C3)c1 (stereo not drawn) [Compound 195] has what pEC50?
< 6.00

Entry O=C(O)C1CN(C2COc3cc(OCc4cccc(C(F)(F)F)c4)ccc3C2)C1 (stereo not drawn) [Compound 59] has what pEC50?
< 6.00

Entry COc1cc(F)cc(COc2ccc3c(c2)OCC(N2CC(C(=O)O)C2)C3)c1 (stereo not drawn) [Compound 100] has what pEC50?
< 6.00

Here is the next item to consider.
Entry O=C(O)CCOC1CCc2cc(OCc3cccc(F)c3F)ccc2C1 (stereo not drawn) [Compound 186] has what pEC50?
< 6.00

----------
System tested: human S1PR4 (Homo sapiens, UniProt O95977)
Construct: host or cells: CHO-K1
Sequence (O95977 whole entry): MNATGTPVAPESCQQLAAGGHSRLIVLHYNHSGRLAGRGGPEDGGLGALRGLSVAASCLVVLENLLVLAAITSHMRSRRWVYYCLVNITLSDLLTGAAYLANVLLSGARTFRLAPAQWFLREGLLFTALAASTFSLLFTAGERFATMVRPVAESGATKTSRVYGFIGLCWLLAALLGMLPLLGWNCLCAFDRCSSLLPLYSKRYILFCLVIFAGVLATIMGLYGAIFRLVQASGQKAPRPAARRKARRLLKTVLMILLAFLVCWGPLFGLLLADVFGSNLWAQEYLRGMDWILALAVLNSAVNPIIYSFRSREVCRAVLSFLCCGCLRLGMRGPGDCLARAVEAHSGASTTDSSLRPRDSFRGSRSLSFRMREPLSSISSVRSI
Assay method text: Intracellular Ca2+ release (FLIPR) agonist potency, S1P4
Format: cell-based
Condition summary: recombinant CHO-K1 cells expressing human S1PR4, aequorin, Gq/i5; Calcium 5 FLIPR; read-out: S1P4 EC50
pEC50: −log10 of the molar value.
Listed below: pEC50 values for each entry.

Some entries whose results are on file:
Entry Cc1cccc(Cl)c1COc1ccc2c(c1)OCC(N1CC(C(=O)O)C1)C2 (stereo not drawn) [Compound 71] has what pEC50?
< 6.00

Entry O=C(O)COC1CCc2cc(OCc3cccc(F)c3F)ccc2C1 (stereo not drawn) [Compound 204] has what pEC50?
< 6.00

Entry CN(CC(=O)O)C1COc2cc(OCc3ccc(OCc4cccc(Cl)c4)cc3)ccc2C1 (stereo not drawn) [Compound 134] has what pEC50?
< 6.00

***
Entry O=C(O)CCNC1CCc2cc(C#Cc3c(Cl)cccc3Cl)ccc2C1 (stereo not drawn) [Compound 12] has what pEC50?
> 6.00

Entry O=C(O)C1CN(C2COc3cc(OCc4cc(F)cc(C(F)(F)F)c4)ccc3C2)C1 (stereo not drawn) [Compound 90] has what pEC50?
> 6.00

Entry CCCc1ccc(COc2ccc3c(c2)OCC(N2CC(C(=O)O)C2)C3)c(OC)c1 (stereo not drawn) [Compound 148] has what pEC50?
< 6.00

----------
System tested: human S1PR4 (Homo sapiens, UniProt O95977)
Construct: host or cells: CHO-K1
Assay method text: Intracellular Ca2+ release (FLIPR) agonist potency, S1P4
Format: cell-based
Condition summary: recombinant CHO-K1 cells expressing human S1PR4, aequorin, Gq/i5; Calcium 5 FLIPR; read-out: S1P4 EC50
pEC50: −log10 of the molar value.
Recorded endpoint: pEC50

Some entries whose results are on file:
Entry O=C(O)COC1CCc2cc(OCc3cc(Cl)ccc3Cl)ccc2C1 (stereo not drawn) [Compound 164] has what pEC50?
< 6.00

Entry Cc1cccc(C#Cc2ccc3c(c2)OCC(N2CC(C(=O)O)C2)C3)c1 (stereo not drawn) [Compound 43] has what pEC50?
> 6.00

Entry CCc1cccc(F)c1COc1ccc2c(c1)OCC(N(C)CC(=O)O)C2 (stereo not drawn) [Compound 72] has what pEC50?
> 6.00

Entry Cc1ccccc1COc1ccc2c(c1)CCC(OCC(=O)O)C2 (stereo not drawn) [Compound 197] has what pEC50?
> 6.00

Here is the next item to consider.
Entry O=C(O)COC1CCc2cc(OCc3cc(F)ccc3C(F)(F)F)ccc2C1 (stereo not drawn) [Compound 168] has what pEC50?
> 6.00
